Quick reference: GI50 of the listed items.
System: OVCAR-4
Experiment notes: NCI tumour cell line growth inhibition, 48 h
Calls of active or inactive are those of the source. No stated cut-off is given here; in the data, active = GI50 up to about 1.1 µM and inactive = higher.

| Compound | GI50 |
| --- | --- |
| COc1cccc(/C(C=O)=C(\Cl)c2ccc(OC)c(OC)c2)c1 | 16 µM (inactive) |
| Cc1cc(SCC(=O)c2ccccc2)nc2ccccc12 | > 100 µM (inactive) |
| COc1ccc(Sc2ccccc2[N+](=O)[O-])cc1 | 65.3 µM (inactive) |
| CCCCCCCCCc1cc(O)c(O)cc1CCCCCCCCC | > 10 µM (inactive) |
| Clc1ccc2ns[s+]c2c1 | 22.4 µM (inactive) |
| O=[N+]([O-])c1ccc2c(c1)=[N+]([O-])C1(CCCCC1)[N+]=2[O-] | 11.6 µM (inactive) |
| NNc1[nH]c(=S)[nH]c1C(N)=O | > 100 µM (inactive) |
| NC1=NC(=O)C(CC(=O)Nc2ccc(Cl)cc2Cl)S1 (stereo unspecified) | > 100 µM (inactive) |
| C=C1CC(C)(COc2ccc3c(C)c(Cl)c(=O)oc3c2)OC1=O (stereo unspecified) | 2.31 µM (inactive) |
| CCNc1nc2c(=O)n(C)c(=O)n(C)c2s1 | > 100 µM (inactive) |
| CNC1C(OC2C(OC3C(O)C(O)C(O)C(O)C3O)OC(C)C2(O)CO)OC(CO)C(O)C1O.N=C(N)N.NC(=O)O (stereo unspecified) | > 100 µM (inactive) |

* * *

Quick reference: GI50 of the listed items.
Test system: A498
Experiment notes: NCI tumour cell line growth inhibition, 48 h
The source made the active and inactive calls. Cut-off read from the data, not from the text of the source: active = GI50 up to about 1.1 µM and inactive = higher.

| Molecule | GI50 |
| --- | --- |
| C=C(C)C(=O)O[C@H]1C/C(CO)=C/CCC(=C)C(OC(C)=O)[C@H]2OC(=O)C(=C)[C@H]12 (stereo partly drawn) | 18.7 µM (inactive) |
| CC1OC(OC2C[C@](O)(C(=O)CF)Cc3c(O)c4c(c(O)c32)C(=O)c2ccccc2C4=O)CC(N)C1O (stereo partly drawn) | 0.233 µM (active) |
| COC(=O)C12C3C4C1C1C2C3C41C(=O)N(C(C)C)C(C)C (stereo not drawn) | > 100 µM (inactive) |

* * *

Quick reference: GI50 of the listed items.
Tested on: HOP-62
Experiment notes: NCI tumour cell line growth inhibition, 48 h
Active and inactive are the calls of the source. Cut-off read from the data, not from the text of the source: active = GI50 up to about 1.1 µM and inactive = higher.

| Molecule | GI50 |
| --- | --- |
| O=C(Nc1cc(Cl)c(Cl)cc1Cl)C(=O)C1C(=O)NC(=S)NC1=O | > 100 µM (inactive) |
| Cc1csc2nc(-c3cccc([N+](=O)[O-])c3)c(/C=N/N=C(N)N)n12 | 1.71 µM (inactive) |
| COC1CC(O[C@H]2CC[C@@]3(C)[C@@H](CC[C@]4(O)[C@@H]3CC[C@]3(C)[C@@H](C(C)=O)[C@H](OC(=O)CC(C)C)[C@@H](OC(=O)c5ccccc5)[C@@]34O)C2)OC(C)C1OC1CC(OC)C(OC2OC(C)C(O)C(OC)C2O)C(C)O1 (stereo partly drawn) | 16 µM (inactive) |
| Cc1ccc2nnc(NS(=O)(=O)c3cc(C)c(Cl)cc3S)n2n1 | > 100 µM (inactive) |
| O=C1CC(O)c2cscc21 (stereo not drawn) | > 100 µM (inactive) |
| COc1ccc(/C=N/NC(=O)c2sc(=S)n(-c3ccccc3)c2N)cc1 | 22.2 µM (inactive) |
| CN1CCCS/C1=C1/SC(=S)N(c2ccccc2)C1=O | > 100 µM (inactive) |
| c1ccc(COC2C3COC(O3)C(OCc3ccccc3)C2OCc2ccccc2)cc1 (stereo not drawn) | 71.3 µM (inactive) |
